readout: IC50

Lab entry: Acetylcholinesterase (Homo sapiens, UniProt P22303) assay, compound `COc1nc(-c2ccnc(NC(=O)C3CC3)c2)sc1C(N)=O` , IC50 = > 1000 nM

Lab entry: Acetylcholinesterase (Homo sapiens, UniProt P22303) assay, compound `CNC(=O)c1sc(-c2ccnc(NC(=O)C3CC3)c2)nc1OCCOCc1cn(-c2c3c(nc4ccccc24)CCCC3)nn1` , IC50 = > 1000 nM

Lab entry: Acetylcholinesterase (Homo sapiens, UniProt P22303) assay, compound `CNC(=O)c1sc(-c2ccnc(NC(=O)C3CC3)c2)nc1OCCc1cn(CCNc2c3c(nc4ccc(OC)cc24)CCCC3)nn1` , IC50 = > 1000 nM

Lab entry: Acetylcholinesterase (Homo sapiens, UniProt P22303) assay, compound `CCNC(=O)c1sc(-c2ccnc(NC(=O)CNCCNc3c4c(nc5ccccc35)CCCC4)c2)nc1OCC1CC1` , IC50 = 45.2 nM

----------
readout: IC50 (nM)
Please state the figure in nM; there is no need to write the unit.

Lab entry: UniProt:Q9Y463 assay, compound `CNC(=O)c1sc(-c2ccnc(NC(=O)CNCCNc3c4c(nc5ccccc35)CCCC4)c2)nc1OCC1CC1` , IC50 = 120

----------
- testedTarget: UniProtKB P49841
- Sequence (P49841 whole entry): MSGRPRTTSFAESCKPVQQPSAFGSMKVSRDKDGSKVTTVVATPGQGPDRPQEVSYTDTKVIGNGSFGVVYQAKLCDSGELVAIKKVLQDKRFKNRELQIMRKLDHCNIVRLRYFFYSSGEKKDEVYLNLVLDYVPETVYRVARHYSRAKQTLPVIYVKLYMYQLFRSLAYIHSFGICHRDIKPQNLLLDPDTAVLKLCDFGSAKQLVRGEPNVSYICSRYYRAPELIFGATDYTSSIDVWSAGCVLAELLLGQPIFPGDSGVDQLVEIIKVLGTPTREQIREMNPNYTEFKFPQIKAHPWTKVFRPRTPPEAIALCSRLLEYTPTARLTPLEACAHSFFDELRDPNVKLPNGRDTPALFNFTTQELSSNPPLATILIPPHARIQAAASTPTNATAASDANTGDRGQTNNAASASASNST
pIC50: −log10 of the molar value.
Cut-off 7 on pIC50, inclusive. At or above means Satisfied; below means Not satisfied.

## Input Check the entry `CNC(=O)c1sc(-c2ccnc(NC(=O)C3CC3)c2)nc1OCCOCc1cn(CCNc2c3c(nc4ccc(OC)cc24)CCCC3)nn1` : does pIC50 equal or exceed 7?
## Output Satisfied

## Input Check the entry `CNC(=O)c1sc(-c2ccnc(NC(=O)CNCCNc3c4c(nc5ccccc35)CCCC4)c2)nc1OCC(C)(C)C` : does pIC50 equal or exceed 7?
## Output Not satisfied

## Input Check the entry `CNC(=O)c1sc(-c2ccnc(NC(=O)C3CC3)c2)nc1OCCc1cn(CCNc2c3c(nc4cc(Cl)ccc24)CCCC3)nn1` : does pIC50 equal or exceed 7?
## Output Satisfied

----------
Quick note: these are IC50 numbers for system: Acetylcholinesterase (Homo sapiens)
Sequence (P22303 whole entry): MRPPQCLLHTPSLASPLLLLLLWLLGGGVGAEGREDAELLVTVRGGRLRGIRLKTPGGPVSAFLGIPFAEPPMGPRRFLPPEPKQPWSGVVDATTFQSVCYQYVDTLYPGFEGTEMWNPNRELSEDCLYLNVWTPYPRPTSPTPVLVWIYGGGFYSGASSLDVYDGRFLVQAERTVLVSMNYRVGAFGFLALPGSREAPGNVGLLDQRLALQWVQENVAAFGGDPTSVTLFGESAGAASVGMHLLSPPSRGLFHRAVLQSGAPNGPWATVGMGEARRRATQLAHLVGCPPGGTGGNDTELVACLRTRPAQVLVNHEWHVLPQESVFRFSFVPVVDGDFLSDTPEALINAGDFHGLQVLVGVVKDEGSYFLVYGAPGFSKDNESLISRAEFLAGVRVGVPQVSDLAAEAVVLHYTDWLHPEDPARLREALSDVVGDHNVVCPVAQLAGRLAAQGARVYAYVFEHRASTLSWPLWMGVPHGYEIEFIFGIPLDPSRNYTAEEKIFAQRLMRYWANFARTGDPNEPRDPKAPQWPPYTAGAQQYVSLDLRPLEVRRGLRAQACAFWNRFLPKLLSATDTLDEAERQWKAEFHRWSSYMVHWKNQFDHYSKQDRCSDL
Please state the figure in nM; there is no need to write the unit.

Noted for `NC(=O)c1sc(-c2ccnc(NC(=O)CNCCNc3c4c(nc5ccccc35)CCCC4)c2)nc1OCC1CC1` : its IC50 reads 0.8

Noted for `CNC(=O)c1sc(-c2ccnc(NC(=O)CNCCCCCCCCNc3c4c(nc5ccccc35)CCCC4)c2)nc1OCC1CC1` : its IC50 reads 15.2

Noted for `CNC(=O)c1sc(-c2ccnc(NC(=O)CNCCNc3c4c(nc5ccc(OC)cc35)CCCC4)c2)nc1OCC1CC1` : its IC50 reads 30.7

Noted for `CNC(=O)c1sc(-c2ccnc(NC(=O)C3CC3)c2)nc1OCCOCc1cn(CCNc2c3c(nc4ccccc24)CCCC3)nn1` : its IC50 reads 44.7

Noted for `CNC(=O)c1sc(-c2ccnc(NC(=O)C3CC3)c2)nc1OCCc1cn(CCNc2c3c(nc4cc(Cl)ccc24)CCCC3)nn1` : its IC50 reads 38.7

Noted for `CNC(=O)c1sc(-c2ccnc(NC(=O)CNCCCCCCNc3c4c(nc5ccccc35)CCCC4)c2)nc1OCC1CC1` : its IC50 reads 21.9

Noted for `CCCNC(=O)c1sc(-c2ccnc(NC(=O)CNCCNc3c4c(nc5ccccc35)CCCC4)c2)nc1OCC1CC1` : its IC50 reads 4.9
